Molecular target: DLK (Homo sapiens)
Construct: 10 nM DLK, catalytic domain, Carna Biosiences; purchased Carna Biosciences ('Carna Biosiences' [sic])
Sequence (Q12852 125-366 limits assumed): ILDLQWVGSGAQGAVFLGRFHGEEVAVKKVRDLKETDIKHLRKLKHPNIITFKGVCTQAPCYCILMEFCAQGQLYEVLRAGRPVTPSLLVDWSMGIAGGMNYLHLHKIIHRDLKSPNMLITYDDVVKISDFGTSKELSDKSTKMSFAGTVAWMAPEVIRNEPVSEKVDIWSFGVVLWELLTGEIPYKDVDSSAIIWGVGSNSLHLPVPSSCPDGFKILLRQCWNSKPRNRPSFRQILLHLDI
Test: DLK biochemical assay (TR-FRET, MKK7 phosphorylation)
Settings: DLK catalytic domain, MKK7 substrate, 60 μM ATP
pIC50: −log10 of the molar value.
If the reported pIC50 equals or exceeds 7, assign Condition met. If not, assign Condition not met.

CCC(c1cncc(Cl)c1)n1cc(-c2cc(C(=O)N[C@@H](C)CC)c3nc(N)nn3c2)cn1 (single isomer, unassigned) [Example I-59]; Condition met
CC[C@H](C)NC(=O)c1cc(-c2cnn(C(c3ccc(C(F)(F)F)nc3)C3CCOCC3)c2)cn2nc(N)nc12 (single isomer, unassigned) [Example I-78]; Condition met
COC[C@H](C)NC(=O)c1cc(-c2cnn(Cc3ccc(F)cc3)c2)cn2nc(N)nc12 (single isomer, unassigned); Condition not met

Field: next molecule
Determine whether this molecule has pIC50 no lower than 7: CCC(c1ccc(N2CCOCC2)cc1)n1cc(-c2cc(C(=O)N[C@@H](C)CC)c3nc(N)nn3c2)cn1 (single isomer, unassigned) [Example I-48]
Condition met

---

Molecular target: LZK (Homo sapiens, UniProt O43283)
Construct: 10 nM LZK, catalytic domain, Carna Biosiences in assay buffer; purchased Carna Biosciences ('Carna Biosiences' [sic])
Sequence (O43283 168-409 limits assumed): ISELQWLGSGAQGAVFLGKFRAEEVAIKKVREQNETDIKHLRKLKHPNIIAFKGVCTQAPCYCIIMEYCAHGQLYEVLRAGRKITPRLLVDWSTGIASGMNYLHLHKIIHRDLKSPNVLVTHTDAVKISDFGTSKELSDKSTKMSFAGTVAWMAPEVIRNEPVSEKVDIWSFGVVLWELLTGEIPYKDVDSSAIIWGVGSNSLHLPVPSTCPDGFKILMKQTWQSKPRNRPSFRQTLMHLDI
Assay: LZK biochemical assay (TR-FRET, MKK7 phosphorylation)
Conditions: LZK catalytic domain, MKK7 substrate, 15 μM ATP
// NB: equality with 4 nM counts as criterion not met; only IC50 strictly below is criterion met

Some solved cases for reference:
CC[C@H](C)NC(=O)c1cc(-c2cnn(C(c3ccc(C(F)F)nc3)C3CC3)c2)cc2nc(N)nn12 (single isomer, unassigned) [Example I-100]; criterion not met
CC[C@H](C)NC(=O)c1cc(-c2cnn(C(c3ccc(C(F)F)nc3)C(C)C)c2)cc2nc(N)nn12 (mixture of isomers) [Example I-95]; criterion not met
CC(CF)NC(=O)c1cc(-c2cnn(C3CCOc4ccccc43)c2)cn2nc(N)nc12 (mixture of isomers) [Example I-144]; criterion not met
CC[C@H](C)NC(=O)c1cc(-c2cnn(C(c3ccc(C(F)(F)F)nc3)C3CCOCC3)c2)cc2nc(N)nn12 (mixture of isomers) [Example I-110]; criterion met

Input CC[C@H](C)NC(=O)c1cc(-c2cnn([C@H](c3ccccc3)C(C)C)c2)cc2nc(N)nn12 (single isomer, unassigned) ; condition: IC50 strictly below 4 nM. Does it hold?
criterion not met

CC[C@H](C)NC(=O)c1cc(-c2cnn([C@H](c3ccnc(OC)c3)C(C)C)c2)cc2nc(N)nn12 (single isomer, unassigned) ?
criterion met
